Biological target: T1, human GIP receptor (human) (UniProt P48546)
T1 sequence (looked up): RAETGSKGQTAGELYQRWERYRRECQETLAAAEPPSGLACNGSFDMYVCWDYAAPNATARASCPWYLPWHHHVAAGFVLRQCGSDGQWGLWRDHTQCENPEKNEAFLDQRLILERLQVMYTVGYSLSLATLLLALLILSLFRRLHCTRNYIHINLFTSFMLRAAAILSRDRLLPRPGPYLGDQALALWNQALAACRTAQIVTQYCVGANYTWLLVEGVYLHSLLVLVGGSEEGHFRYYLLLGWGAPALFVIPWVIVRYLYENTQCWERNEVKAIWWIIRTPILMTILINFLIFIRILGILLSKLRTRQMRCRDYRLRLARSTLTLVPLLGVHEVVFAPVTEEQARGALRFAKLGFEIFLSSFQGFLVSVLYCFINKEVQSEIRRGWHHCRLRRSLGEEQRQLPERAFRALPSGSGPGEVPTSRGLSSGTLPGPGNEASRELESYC
Experiment: cell-based or functional assay
Decide using Relative cAMP EC50: a value greater than or equal to 100 pM is t, a smaller one is f.

Past entries and their recorded results:
- binder: "YXQGTXTSDXXIXLDXKAAXEFIEXLIEGGPSSGAPPPSGSE (synthetic construct; SITE 2: note = 2-Aminoisobutyric Acid; SITE 6: note = alpha-methyl-2-fluoro-L-phenylalanine; SITE 10: note = 3-(4-Pyridyl)-L-alanine; SITE 11: note = alpha-methyl-L-serine; SITE 13: note = alpha-methyl-leucine; SITE 16: note = L-ornithine; SITE 17: note = Lysine is chemically mo) [Example 702]"
  label class: "f"
- binder: "YXQGTFTSDXSQXLDXKAQXQFIEXLIEXGPSSGEPPPSGSEE (non-natural residues, acylated Lys (AEEA-γGlu-C18 diacid), C-terminal amide; synthetic construct; SITE 2: note = 2-Aminoisobutyric Acid; SITE 10: note = 3-(4-Pyridyl)-L-alanine; SITE 13: note = alpha-methyl-leucine; SITE 16: note = L-ornithine; SITE 17: note = Lysine is chemically modified through conjugation of the epsilon-amino group of the Lysine side chain with (2-[2-(2-) [Example 1098]"
  label class: "t"
- binder: "YXQGTXTSDXSIXLDKKAQXXFIEYLTEGGPSSGEPPPEGSEE (synthetic construct; SITE 2: note = 2-Aminoisobutyric Acid; SITE 6: note = alpha-methyl-2-fluoro-L-phenylalanine; SITE 10: note = 3-(4-Pyridyl)-L-alanine; SITE 13: note = alpha-methyl-leucine; SITE 17: note = Lysine is chemically modified through conjugation of the epsilon-amino group of the Lysine) [Example 652 (SEQ ID NO: 658)]"
  label class: "f"
- binder: "YXQGTFTSDXSQXLDXKAQXAFIEYLIAXGPSSGAPPPSGSEE (non-natural residues; acylated Lys C18 diacid; C-term amide; synthetic construct; SITE 2: note = 2-Aminoisobutyric Acid; SITE 10: note = 3-(4-Pyridyl)-L-alanine; SITE 13: note = alpha-methyl-leucine; SITE 16: note = L-ornithine; SITE 17: note = Lysine is chemically modified through conjugation of the epsilon-amino group of the Lysine side chain with (gamma-Gl)) [Example 1091]"
  label class: "f"

Could you tell me if the measured Relative cAMP EC50 of YXQGTFTSDXSXXLDXKAQXAFIEXLLEGGPSSGAPPPSGSEE (Aib, 4Pal, Orn, αMeL, αMeY; lipidated Lys; C-terminal amide; synthetic construct; SITE 2: note = 2-Aminoisobutyric Acid; SITE 10: note = 3-(4-Pyridyl)-L-alanine; SITE 12: note = L-ornithine; SITE 13: note = alpha-methyl-leucine; SITE 16: note = L-ornithine; SITE 17: note = Lysine is chemically modified through conjugation of the epsilon-amino group of the Lys) [Example 1065] reaches 100 pM or more?
t

Does the binder YXQGTFTSDFSXXLDKKAQXAFIEYLLEGGPSSGXPPPGGS (not fully specified; synthetic construct; SITE 2: note = 2-Aminoisobutyric Acid; SITE 12: note = L-ornithine; SITE 13: note = alpha-methyl-leucine; SITE 17: note = Lysine is chemically modified through conjugation of the epsilon-amino group of the Lysine side chain with (gamma-Glu)2-CO-(CH2)16-CO2H; SITE 20: note = 2-Am) [Example 771] have recorded Relative cAMP EC50 that is 100 pM or more?
t

Please tell me: is the binder YXQGTXTSDXXIXLDXKAQXEFIEXLVEGGPSSGEPPPEGE (Aib, αMeF(2F), 4Pal, Me4Pal, Orn; lipidated Lys; C-terminal amide; synthetic construct; SITE 2: note = 2-Aminoisobutyric Acid; SITE 6: note = alpha-methyl-2-fluoro-L-phenylalanine; SITE 10: note = 3-(4-Pyridyl)-L-alanine; SITE 11: note = alpha-methyl-L-serine; SITE 13: note = alpha-methyl-leucine; SITE 16: note = L-ornithine; SITE 17: note = Lysine is chemically mo) [Example 1159] at or over 100 pM in terms of Relative cAMP EC50?
f

Is Relative cAMP EC50 for YXQGTXTSDXXIXLDXKAQXXFIEXLAEGGPSSGEPPPSGTGE (synthetic construct; SITE 2: note = 2-Aminoisobutyric Acid; SITE 6: note = alpha-methyl-2-fluoro-L-phenylalanine; SITE 10: note = 3-(4-Pyridyl)-L-alanine; SITE 11: note = alpha-methyl-L-serine; SITE 13: note = alpha-methyl-leucine; SITE 16: note = L-ornithine; SITE 17: note = Lysine is chemically mo) [Example 545] at or above 100 pM?
f
